Kindly supply the reported MFI values for the records listed here.
Biological target: human DLL3 endogenously expressed on SHP77 and NCI-H82 cells (human) (UniProt Q9NYJ7)
Sequence (Q9NYJ7 27-618): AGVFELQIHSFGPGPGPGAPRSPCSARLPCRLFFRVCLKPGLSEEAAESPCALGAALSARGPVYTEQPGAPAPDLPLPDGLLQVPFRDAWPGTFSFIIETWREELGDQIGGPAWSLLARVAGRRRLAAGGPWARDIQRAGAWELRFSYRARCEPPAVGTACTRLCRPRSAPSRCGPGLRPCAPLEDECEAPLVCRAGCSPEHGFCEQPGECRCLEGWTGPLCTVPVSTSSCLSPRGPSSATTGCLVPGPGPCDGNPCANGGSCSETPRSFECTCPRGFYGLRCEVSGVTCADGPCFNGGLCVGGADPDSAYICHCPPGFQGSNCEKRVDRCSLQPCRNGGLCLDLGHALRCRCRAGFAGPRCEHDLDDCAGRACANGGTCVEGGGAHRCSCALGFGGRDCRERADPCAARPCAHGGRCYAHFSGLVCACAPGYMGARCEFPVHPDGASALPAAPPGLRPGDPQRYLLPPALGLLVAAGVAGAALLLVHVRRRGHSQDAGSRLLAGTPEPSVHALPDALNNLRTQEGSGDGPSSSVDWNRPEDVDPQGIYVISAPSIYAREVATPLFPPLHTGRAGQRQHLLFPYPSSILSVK
Experiment: FACS SHP77 cells, 20 nM
One number for each entry, in MFI.

{"binder": "mab012 scFv-hFc (Fc fusion, not shown: small tags and cut ends; a dimerising Fc or GST) scFv (part 1 of 2): DVLMTQTPLSLPVSLGDQASISCRSSQSIVHSDGNTYLEWYLQKPGQSPKLLIYKVSNRFSGVPDRFSGSGSGTDFTLKISRVEAEDLGFYYCFQGSHVPFTFGSGTKLEIK scFv (part 2 of 2): QVQLQQSGPELVKPGASVKISCKASGYTFTDYYIHWVKQRPGQGLEWIGWTLPGSGSPYYNEKFKGKATLTVDKSSSTAYMLLSSLTSEDSAVYFCARWHYYYGSSYHFDYWGQGTTLTVSS", "units-label": "MFI", "MFI": 729}
{"binder": "mab011 scFv-hFc (Fc fusion, not shown: small tags and cut ends; a dimerising Fc or GST) scFv (part 1 of 2): DIVLTQSPATLSVTPGDSVSLSCRASQSISNNLHWYQQKSHESPRLLIKYASQSISGIPSRFSGSGSGTDFTLSINSVETEDFGMYFCQQSNSWPWTFGGGTKLEIK scFv (part 2 of 2): EVQLQQSGPELVKPGASVKISCKASGYTFTDYYMNWVKQSHGKSLEWIGDISPNYGGTNYNQKFKGKATLTVDKSSSTACMELRSLTSEDSAVYYCTRSFYYYGTGYDWYFDVWGTGTTVTVSS", "units-label": "MFI", "MFI": 608}
{"binder": "mab008 scFv-hFc (Fc fusion, not shown: small tags and cut ends; a dimerising Fc or GST) scFv (part 1 of 2): DIVMTQSQKFMSTSVGDRVSITCKASQNVGTAVAWYQQKPGQSPKLLIFSASIRYTGVPDRFTGSGSGTDFTLTISNMQSEDLADYFCQQYSSSPYTFGGGTKLEIK scFv (part 2 of 2): EVQLQQSGPVLVKPGASVKMSCKASGYTFTDYYMNWVKRSHGKSLEWIGIINPYNGGTSYNQKFRGKATLTVDKSSNTAYMELNSLTSEDSAVYYCSRYDYDYDVEGAMDYWGQGTSVTVSS", "units-label": "MFI", "MFI": 468}
{"binder": "mab002 scFv-hFc (Fc fusion, not shown: small tags and cut ends; a dimerising Fc or GST) scFv (part 1 of 2): QIVLTQSPAIMSASPGEKVTMTCSARSSVSYMQWYQQKSGTSPKRWIYDTSKLASGVPARFSGSGSGTSYSLTISTMEAEDAATYYCQQWSSDPPTFGGGTKLEIK scFv (part 2 of 2): QIQLVQSGPELKKPGETVKISCKASGYTFTNYGMNWLKQAPGKGLKWMGWINTYTGESTYADDFKGRFAFSLETSASTVYLQINNLKNEDMATYFCARMGDGYYDFTMDYWGQGTSVTVSS", "units-label": "MFI", "MFI": 548}

binder mab005 scFv-hFc (Fc fusion, not shown: small tags and cut ends; a dimerising Fc or GST) scFv (part 1 of 2): DIVLTQSPATLSVTPGDSVSLSCRASQSVSNDLHWYQQKSHESPRLLIKYASQSISGIPSRFSGSGSGTDFTLTINSVETEDFGMYFCQQSNNWPYTFGGGTKLEMK scFv (part 2 of 2): QVQLQQSGAELMKPGASVTLSCKATGYTLPGYWIEWVKQRPGHGLEWIGEILPGSSSANYNEKFKGKATFTADTSSNTAYMQLSSLTTEDSAIYYCASTYGTSLDYWGQGTTLTVSS , MFI observed: 486
